Ref: patent US11739098B2

# Measurement target: human TLR9 (Homo sapiens)
# Assay remarks: TLR9 inhibition reporter assay (HEK-Blue cells, SEAP reporter, ODN2006 stimulation)
# Assay setup: HEK-Blue cells overexpressing human TLR9, SEAP reporter, ODN2006 5 nM
# Description: TLR7/8/9 Inhibition Reporter Assays HEK-Blue™-cells (Invivogen) overexpressing human TLR7, TLR8 or TLR9 receptors were used for screening inhibitors of these receptors using an inducible SEAP (secreted embryonic alkaline phosphatase) reporter gene under the control of the IFN-β minimal promoter fused to five NF-κB and AP-1-binding sites. […]
pIC50: −log10 of the molar value.
Parameter pIC50: see the listing below.

Below: 5 compounds and their reported pIC50.
INSERT INTO assay_data (compound, measurement_target, parameter_measured, assay_result) VALUES
  ('Cc1cc(-c2[nH]c3ccc(C4CCN(C(=O)CCN5CCS(=O)(=O)CC5)CC4)cc3c2C(C)C)cn2nnnc12', 'human TLR9 (Homo sapiens)', 'pIC50', '< 4.30'),
  ('CCOc1cc(-c2[nH]c3ccc(C4CCN(C(=O)CN(C)C)CC4)cc3c2C(C)C)cc2nc(C)nn12', 'human TLR9 (Homo sapiens)', 'pIC50', '4.30 to 6.00'),
  ('CC(C)c1c(-c2ccnc3c2ncn3C)[nH]c2ccc(C3CCNCC3)cc12 [Example 44]', 'human TLR9 (Homo sapiens)', 'pIC50', '4.30 to 6.00'),
  ('CNCCN1CCC(c2ccc3[nH]c(-c4cncc5ccccc45)c(C)c3c2)CC1 [Example 665]', 'human TLR9 (Homo sapiens)', 'pIC50', '6.00 to 7.00'),
  ('CCN(C)CC(=O)N1CCC(c2ccc3[nH]c(-c4cc(C)c5nnnn5c4)c(C(C)C)c3c2)CC1', 'human TLR9 (Homo sapiens)', 'pIC50', '4.30 to 6.00');

Qu. # get_value(readout='pIC50', item= `CCc1c(-c2ccnc3[nH]ncc23)[nH]c2ccc(C3CCNCC3)cc12` )
Ans. 6.00 to 7.00

Qu. # get_value(readout='pIC50', item= `Cc1cc(-c2[nH]c3ccc(C4CCN(C(=O)CN5CCC(F)CC5)CC4)cc3c2C(C)C)cn2nnnc12` )
Ans. 4.30 to 6.00

Qu. # get_value(readout='pIC50', item= `CC(C)c1c(-c2cn3cnnc3c(O)n2)[nH]c2ccc(C3CCNCC3)cc12` )
Ans. 4.30 to 6.00

====

# Measurement target: human TLR8 (Homo sapiens, UniProt Q9NR97)
# Sequence (Q9NR97 27-1041): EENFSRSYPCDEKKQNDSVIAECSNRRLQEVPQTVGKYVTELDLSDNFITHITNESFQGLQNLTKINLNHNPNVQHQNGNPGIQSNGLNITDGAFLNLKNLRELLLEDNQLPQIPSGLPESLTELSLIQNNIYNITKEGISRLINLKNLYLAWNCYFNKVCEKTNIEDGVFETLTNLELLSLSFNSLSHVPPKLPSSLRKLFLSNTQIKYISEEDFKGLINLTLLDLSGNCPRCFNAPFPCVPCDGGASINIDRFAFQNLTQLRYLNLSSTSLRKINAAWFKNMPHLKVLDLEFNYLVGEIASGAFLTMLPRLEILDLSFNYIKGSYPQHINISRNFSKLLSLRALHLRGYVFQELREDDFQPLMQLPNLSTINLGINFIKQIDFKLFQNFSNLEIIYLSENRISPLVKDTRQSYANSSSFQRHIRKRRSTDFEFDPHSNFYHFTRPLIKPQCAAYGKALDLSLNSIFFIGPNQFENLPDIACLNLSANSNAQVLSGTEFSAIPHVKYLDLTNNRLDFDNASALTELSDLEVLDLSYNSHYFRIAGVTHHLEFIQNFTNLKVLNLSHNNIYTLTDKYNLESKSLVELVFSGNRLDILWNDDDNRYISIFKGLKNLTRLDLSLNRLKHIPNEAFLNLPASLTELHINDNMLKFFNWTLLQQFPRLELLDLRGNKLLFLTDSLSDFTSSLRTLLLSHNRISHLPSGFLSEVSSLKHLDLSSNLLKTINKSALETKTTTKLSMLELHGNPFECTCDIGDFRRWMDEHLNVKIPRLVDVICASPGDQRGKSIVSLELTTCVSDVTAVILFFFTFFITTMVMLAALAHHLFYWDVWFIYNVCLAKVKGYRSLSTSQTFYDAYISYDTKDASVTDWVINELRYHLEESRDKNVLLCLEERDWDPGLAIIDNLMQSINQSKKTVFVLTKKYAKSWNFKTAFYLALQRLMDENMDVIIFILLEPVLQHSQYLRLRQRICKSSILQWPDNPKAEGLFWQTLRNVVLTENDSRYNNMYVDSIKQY
# Assay remarks: TLR8 inhibition reporter assay (HEK-Blue cells, SEAP reporter, R848 stimulation)
# Assay setup: HEK-Blue cells overexpressing human TLR8, SEAP reporter, R848 15.9 μM
Parameter measured: IC50

Below: 4 compounds and their reported IC50.
INSERT INTO results (compound, assay_result) VALUES
  ('CNC(=O)CN1CCC(c2ccc3[nH]c(-c4cc(C)n5ccnc5c4)c(C(C)C)c3c2)CC1 [Example 355]', '100 to 1000 nM'),
  ('Cc1nc(CN2CCC(c3ccc4[nH]c(-c5ccc6nccn6c5)c(CC(F)F)c4c3)CC2)c[nH]1 [Example 939]', '100 to 1000 nM'),
  ('Cc1c(-c2[nH]c3ccc(C4CCN(C5CCOCC5)CC4)cc3c2C(C)C)nn2ncnc2c1C [Example 684]', '< 100 nM'),
  ('Cc1nc2c(-c3[nH]c4ccc(C5CCN(C(=O)C[C@H](C)O)CC5)cc4c3C(C)C)ccc(C)n2n1 [Example 598]', '1000 to 50000 nM');

Qu. Field: IC50 (human TLR8 (Homo sapiens, UniProt Q9NR97)). Entry: CC(C)c1c(-c2ccn3nccc3c2)[nH]c2ccc(C3CCN(C(=O)CN(C)C)CC3)cc12 [Example 542]
Ans. 100 to 1000 nM

Qu. Field: IC50 (human TLR8 (Homo sapiens, UniProt Q9NR97)). Entry: CNCCN1CCC(c2ccc3[nH]c(-c4ccc5scnc5c4)c(C)c3c2)CC1 [compound 659]
Ans. > 3130 nM

Qu. Field: IC50 (human TLR8 (Homo sapiens, UniProt Q9NR97)). Entry: Cc1nnn2ccc(-c3[nH]c4ccc(C5CCN(CC(=O)N(C)C)CC5)cc4c3C(C)C)cc12 [Example 318]
Ans. < 100 nM

Qu. Field: IC50 (human TLR8 (Homo sapiens, UniProt Q9NR97)). Entry: CC(C)c1c(-c2ccnc3[nH]ncc23)[nH]c2ccc(C3CCN(C(=O)CNCC(C)(C)C)CC3)cc12 [Example 589]
Ans. < 100 nM

====

# Measurement target: human TLR9 (Homo sapiens, UniProt Q9NR96)
# Sequence (Q9NR96 26-1032): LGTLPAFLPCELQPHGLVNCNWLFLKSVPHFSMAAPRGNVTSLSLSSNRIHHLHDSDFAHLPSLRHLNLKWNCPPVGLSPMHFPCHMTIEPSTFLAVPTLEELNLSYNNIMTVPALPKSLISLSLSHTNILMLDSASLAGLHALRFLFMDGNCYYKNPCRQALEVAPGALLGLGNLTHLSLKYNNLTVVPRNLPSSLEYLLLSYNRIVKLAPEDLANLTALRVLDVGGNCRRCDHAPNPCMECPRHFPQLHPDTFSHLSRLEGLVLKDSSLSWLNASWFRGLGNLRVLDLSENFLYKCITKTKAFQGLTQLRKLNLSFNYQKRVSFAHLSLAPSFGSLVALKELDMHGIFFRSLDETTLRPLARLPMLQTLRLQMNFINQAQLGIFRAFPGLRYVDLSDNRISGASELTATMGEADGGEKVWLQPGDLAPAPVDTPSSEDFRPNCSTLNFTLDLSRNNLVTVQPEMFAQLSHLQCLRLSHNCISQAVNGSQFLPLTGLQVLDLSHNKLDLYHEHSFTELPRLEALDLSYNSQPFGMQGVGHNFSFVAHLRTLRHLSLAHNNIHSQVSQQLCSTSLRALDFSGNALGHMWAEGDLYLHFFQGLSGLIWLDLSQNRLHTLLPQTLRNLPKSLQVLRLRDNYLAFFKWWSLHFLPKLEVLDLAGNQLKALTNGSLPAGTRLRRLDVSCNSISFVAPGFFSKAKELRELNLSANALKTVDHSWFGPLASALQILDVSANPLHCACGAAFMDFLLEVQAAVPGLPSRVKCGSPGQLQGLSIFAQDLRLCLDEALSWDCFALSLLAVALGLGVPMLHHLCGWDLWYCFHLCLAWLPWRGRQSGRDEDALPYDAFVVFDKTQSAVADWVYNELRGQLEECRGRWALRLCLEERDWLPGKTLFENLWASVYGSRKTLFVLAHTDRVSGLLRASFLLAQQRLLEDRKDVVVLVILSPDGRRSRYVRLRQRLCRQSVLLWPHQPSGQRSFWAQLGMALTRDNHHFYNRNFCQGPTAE
# Assay remarks: TLR9 inhibition reporter assay (HEK-Blue cells, SEAP reporter, ODN2006 stimulation)
# Assay setup: HEK-Blue cells overexpressing human TLR9, SEAP reporter, ODN2006 5 nM
Parameter measured: IC50

INSERT INTO results (entry_smiles, assay_result) VALUES
  ('CC(C)c1c(-c2cnc3ccnn3c2)[nH]c2ccc(C3CCN(Cc4cnn(C)c4)CC3)cc12', '100 to 1000 nM'),
  ('CC(C)c1c(-c2cnc3[nH]nc(N)c3c2)[nH]c2ccc(C3CCNCC3)cc12', '1000 to 50000 nM');

Qu. # get_value(readout='IC50', item= `CCc1c(-c2ccnc3[nH]ncc23)[nH]c2ccc(C3CCN(CC(N)=O)CC3)cc12` )
Ans. 1000 to 50000 nM

Qu. # get_value(readout='IC50', item= `CC(=O)N[C@H]1CCN(CC(=O)N2CCC(c3ccc4[nH]c(-c5ccnc6[nH]ncc56)c(C(C)C)c4c3)CC2)C1` )
Ans. 1000 to 50000 nM

====

# Measurement target: human TLR7 (Homo sapiens, UniProt Q9NYK1)
# Sequence (Q9NYK1 27-1049): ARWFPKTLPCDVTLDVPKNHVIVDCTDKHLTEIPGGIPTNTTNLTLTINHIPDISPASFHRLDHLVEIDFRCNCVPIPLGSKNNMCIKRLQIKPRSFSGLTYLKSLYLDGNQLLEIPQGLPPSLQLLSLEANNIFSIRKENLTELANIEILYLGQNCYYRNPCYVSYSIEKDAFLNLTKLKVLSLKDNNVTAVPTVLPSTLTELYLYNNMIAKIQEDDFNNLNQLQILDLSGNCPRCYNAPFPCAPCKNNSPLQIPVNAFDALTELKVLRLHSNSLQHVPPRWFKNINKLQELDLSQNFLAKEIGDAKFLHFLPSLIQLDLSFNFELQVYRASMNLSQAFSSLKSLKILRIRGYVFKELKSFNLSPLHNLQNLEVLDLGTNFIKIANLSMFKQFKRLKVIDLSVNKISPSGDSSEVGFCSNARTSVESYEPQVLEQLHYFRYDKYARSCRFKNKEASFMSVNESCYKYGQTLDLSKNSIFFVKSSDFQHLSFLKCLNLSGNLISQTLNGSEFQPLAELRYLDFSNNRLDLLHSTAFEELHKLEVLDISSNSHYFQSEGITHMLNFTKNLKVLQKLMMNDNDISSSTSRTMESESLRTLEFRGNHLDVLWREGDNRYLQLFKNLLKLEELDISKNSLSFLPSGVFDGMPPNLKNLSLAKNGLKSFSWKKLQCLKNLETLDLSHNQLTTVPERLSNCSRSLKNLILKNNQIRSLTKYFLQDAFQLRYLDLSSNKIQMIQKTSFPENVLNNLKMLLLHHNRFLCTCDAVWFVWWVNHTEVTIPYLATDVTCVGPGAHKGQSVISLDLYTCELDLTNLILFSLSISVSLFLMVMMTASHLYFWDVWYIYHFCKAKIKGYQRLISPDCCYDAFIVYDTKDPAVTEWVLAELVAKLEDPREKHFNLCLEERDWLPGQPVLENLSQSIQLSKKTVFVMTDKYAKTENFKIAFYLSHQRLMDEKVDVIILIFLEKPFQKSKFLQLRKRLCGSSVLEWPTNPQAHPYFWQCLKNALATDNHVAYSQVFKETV
# Assay remarks: TLR7 inhibition reporter assay (HEK-Blue cells, SEAP reporter, gardiquimod stimulation)
# Assay setup: HEK-Blue cells overexpressing human TLR7, SEAP reporter, gardiquimod 7.5 μM
pIC50: −log10 of the molar value.
Parameter measured: pIC50

Below: 5 compounds and their reported pIC50.
INSERT INTO measurements (compound, measurement_target, parameter_measured, assay_result) VALUES
  ('CCc1c(-c2ccnc3[nH]ncc23)[nH]c2ccc(C3CCN(Cc4c[nH]c(-c5ccccc5)n4)CC3)cc12', 'human TLR7 (Homo sapiens, UniProt Q9NYK1)', 'pIC50', '6.00 to 7.00'),
  ('Cc1cc(-c2[nH]c3ccc(C4CCN(C(=O)CCN5CC6(COC6)C5)CC4)cc3c2C(C)C)cn2nnnc12', 'human TLR7 (Homo sapiens, UniProt Q9NYK1)', 'pIC50', '> 7.00'),
  ('Cc1c(-c2[nH]c3ccc(C4CCN(C5CCOCC5)CC4)cc3c2C(C)C)nn2ncnc2c1C', 'human TLR7 (Homo sapiens, UniProt Q9NYK1)', 'pIC50', '> 7.00'),
  ('CNC(=O)CN1CCC(c2ccc3[nH]c(-c4cc(F)c5nccn5c4)c(C(C)C)c3c2)CC1', 'human TLR7 (Homo sapiens, UniProt Q9NYK1)', 'pIC50', '> 7.00'),
  ('CCc1c(-c2ccnc3[nH]ncc23)[nH]c2ccc(C3CCNCC3F)cc12 (stereo not shown) [Example 173]', 'human TLR7 (Homo sapiens, UniProt Q9NYK1)', 'pIC50', '6.00 to 7.00');

Qu. # get_value(readout='pIC50', item= `CCc1c(-c2ccnc3[nH]ncc23)[nH]c2ccc(C3CCN(Cc4c(C)noc4C)CC3)cc12` )
Ans. 6.00 to 7.00

Qu. # get_value(readout='pIC50', item= `CNC(=O)CN1CCC(c2ccc3[nH]c(-c4ccn5nccc5c4)c(C(C)C)c3c2)CC1` )
Ans. > 7.00

Qu. # get_value(readout='pIC50', item= `CCc1c(-c2ccnc3[nH]cc(C(C)C)c23)[nH]c2ccc(C3CCNCC3)cc12` )
Ans. 6.00 to 7.00

Qu. # get_value(readout='pIC50', item= `CC(C)c1c(-c2cc(CO)c3nnnn3c2)[nH]c2ccc(C3CCNCC3)cc12` )
Ans. > 7.00

Qu. # get_value(readout='pIC50', item= `CC(C)c1c(-c2cn(C)c3ncccc23)[nH]c2ccc(C3CCN(CC(C)(C)O)CC3)cc12` )
Ans. > 7.00

Qu. # get_value(readout='pIC50', item= `CC(C)c1c(-c2ccnc3cn[nH]c23)[nH]c2ccc(C3CCNCC3)cc12` )
Ans. > 7.00

====

Parameter pIC50: see the listing below.
# Measurement target: human TLR7 (Homo sapiens)
# Construct: host or cells: HEK-Blue cells (HEK293-derived reporter line)
# Assay remarks: TLR7 inhibition reporter assay (HEK-Blue cells, SEAP reporter, gardiquimod stimulation)
# Format: cell-based
# Assay setup: HEK-Blue cells overexpressing human TLR7, SEAP reporter, gardiquimod 7.5 μM
pIC50: −log10 of the molar value.

Below: 5 compounds and their reported pIC50.
INSERT INTO assay_data (entry_smiles, parameter_measured, assay_result) VALUES
  ('CCc1c(-c2cc3cn(C)nc3cn2)[nH]c2ccc(C3CCNCC3)cc12', 'pIC50', '4.30 to 6.00'),
  ('CNCC(=O)N1CCC(c2ccc3[nH]c(-c4cnc5ncnn5c4)c(C(C)C)c3c2)CC1', 'pIC50', '> 7.00'),
  ('Cc1cc(-c2[nH]c3ccc(C4CCN(C(=O)CCN5CCS(=O)(=O)CC5)CC4)cc3c2C(C)C)cn2nnnc12', 'pIC50', '> 7.00'),
  ('CC(=O)NCC(=O)N1CCC(c2ccc3[nH]c(-c4ccnc5[nH]ncc45)c(C(C)C)c3c2)CC1', 'pIC50', '> 7.00'),
  ('CC(C)c1c(-c2ccnc3[nH]ncc23)[nH]c2ccc(C3CCN(Cc4ccccn4)CC3)cc12', 'pIC50', '> 7.00');

Qu. # get_value(readout='pIC50', item= `CCc1c(-c2ccnc3[nH]ncc23)[nH]c2c(F)cc(C3CCNCC3)cc12` )
Ans. > 7.00

Qu. # get_value(readout='pIC50', item= `COc1nc(-c2[nH]c3ccc(C4CCN(CC(=O)N(C)C)CC4)cc3c2C(C)C)cn2ncnc12` )
Ans. > 7.00

Qu. # get_value(readout='pIC50', item= `COc1cc(-c2[nH]c3ccc(C4CCN(C(=O)CN(C)C)CC4)cc3c2C(C)C)nn2ncnc12` )
Ans. > 7.00
